Reference source: patent US20230287433

Molecular target: ICAM-1 extracellular domain (C-terminal His) (Homo sapiens, UniProt P05362 SEQ:1-453)
Sequence (P05362 28-480): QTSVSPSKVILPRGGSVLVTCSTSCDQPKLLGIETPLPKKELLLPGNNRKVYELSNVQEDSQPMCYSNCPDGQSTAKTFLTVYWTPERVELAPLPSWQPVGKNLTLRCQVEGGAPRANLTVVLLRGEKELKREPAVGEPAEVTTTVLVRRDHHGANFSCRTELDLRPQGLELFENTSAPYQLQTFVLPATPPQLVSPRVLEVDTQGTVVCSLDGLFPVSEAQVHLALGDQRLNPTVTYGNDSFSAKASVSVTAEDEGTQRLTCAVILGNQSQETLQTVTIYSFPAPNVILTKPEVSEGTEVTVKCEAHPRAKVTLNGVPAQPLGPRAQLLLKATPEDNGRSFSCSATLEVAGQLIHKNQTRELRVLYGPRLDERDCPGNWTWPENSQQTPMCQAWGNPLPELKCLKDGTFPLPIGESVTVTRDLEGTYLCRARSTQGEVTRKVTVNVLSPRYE
Assay: ITC; 37 C, potassium phosphate; 7.96 nM at 33 C
Conditions: tags: C-terminal His6; Ray-Biotech 228-21751-2
readout_kind: Kd (nM)
Please reply with the bare figure in nM and do not write the unit itself.

Give the measured Kd for GTGCTCTCTTGTCAATCTATGACTGCTGGAGAGGAAG (ssDNA) [NasD-4.1 State 5]
5.14
